target_desc: murine CLDN18.2 (mCLDN18.2) (murine) (UniProt P56857)
measurement_notes: FACS, HEK293-mCLDN18.2 cells
metric: Mean maximum fluorescence intensity (Top MFI)
Could you give me the number in MFI? Just the number is fine.

Example results:
* ch-229C9 (antibody, V domains shown, also called chimeric antibody of clone 229C9) VH: DVQLQESGPDLVKPSQSLSLICTVTGYSITSGYSWHWIRQFPGNKLEWMGYIHYSGGTNYNPSLKSRISFTRDTSKNQFFLQLNSVTTEDTATYYCARLERGNSFAYWGQGTLVTVSA VL: DIVMTQSPSSLTVTAGEKVTMSCKSTQSLLNSGNQKNYLTWYQQKPGQPPKLLIYWASTRESGVPDRFTGSGSGTDFTLTISSLQAEDLAVYYCQNDYFYPFTFGSGTKLEIK | 12700
* ch-76D11 (antibody, V domains shown, also called chimeric antibody of clone 76D11) VH: QVQLQQSGAELMKPGASVKLSCKASGYTFTGYWIEWIKQRPGHGLEWIGEILPGSGSIKYNEKFKDKATFTADTSSNTAYMQLSSLTTEDSAIYYCARKGLRGNSFDYWGQGTTLTVSS VL: DIVMTQSPSSLTVTAGEKVTMSCKSSQSLLNSGNQKNYLTWYQQKPGQPPKRLIYWASTRESGVPDRFTGSGSGTDFTLTISSVQAEDLAVYYCQNDYYYPFTFGSGTKLEIK | 6340

Given the binder ch-251H11 (antibody, V domains shown, also called chimeric antibody of clone 251H11) VH: QVQLKQSGAELVRPGASVKLSCKTSGYTFTTFWIHWIKQRSGQGLEWIAKIYPGTGYTYYNEKFKGKATLTADKSSSAAYMQLSSLKSEDSAVYFCAREGYGKGNAVDFWGQGSSVTVSS VL: DIVMTQSPSSLTVTAGEKVTMSCKSSQSLFNSGNQKNYLTWYQQKPGQPPKLLIYWASTRESGVPDRFTGSGSGTDFTLTIDSVQAEDLAVYYCQNDYTYPSTFGGGTNLEIK , what is its reported Mean maximum fluorescence intensity (Top MFI)?
8590

Attribution: patent US20220411492A1
